# Assay text: Cmax in Sprague-Dawley rat at 5 mg/kg, iv
# Type: ADME, organism-based
# Set-up: dose 5 mg/kg, route intravenous
# Test parameters: in vivo
Listed here: items and their measured Cmax.
Entry rule: numbers only, all in ng/mL.

# Smiles, Endpoint unit, Cmax
data = [
    ("C=C[C@]1(C)C[C@@H](OC(=O)CSc2nnc(NC(=O)CN3CCCCC3)s2)[C@]2(C)[C@H](C)CC[C@]3(CCC(=O)[C@H]32)[C@@H](C)[C@@H]1O", "ng/mL", 11300),
]

Next compound, please.
## Input # lookup: Cmax of `C=C[C@]1(C)C[C@@H](OC(=O)CSc2nnc(N)s2)[C@]2(C)[C@H](C)CC[C@]3(CCC(=O)[C@H]32)[C@@H](C)[C@@H]1O`
## Output 13600

---

# System: Escherichia coli
# Assay text: Antibacterial activity against Escherichia coli after 48 hrs by agar dilution method
# Format: functional
Recorded metric: MIC (µg/mL)
Entry rule: numbers only, all in µg/mL.

## Input # lookup: MIC of `C=C[C@]1(C)C[C@@H](OC(=O)CSc2nnc(NC(=O)CN3CCN(C)CC3)s2)[C@]2(C)[C@H](C)CC[C@]3(CCC(=O)[C@H]32)[C@@H](C)[C@@H]1O`
## Output 16

## Input # lookup: MIC of `C=C[C@]1(C)C[C@@H](OC(=O)CSc2nnc(NC(=O)c3ccc(N)cc3)s2)[C@]2(C)[C@H](C)CC[C@]3(CCC(=O)[C@H]32)[C@@H](C)[C@@H]1O`
## Output 16

## Input # lookup: MIC of `C=C[C@]1(C)C[C@@H](OC(=O)CSc2nnc(NC(=O)c3ccc(OC)cc3)s2)[C@]2(C)[C@H](C)CC[C@]3(CCC(=O)[C@H]32)[C@@H](C)[C@@H]1O`
## Output 32

## Input # lookup: MIC of C=C[C@]1(C)C[C@@H](OC(=O)CSCCN(CC)CC)[C@]2(C)[C@H](C)CC[C@]3(CCC(=O)[C@H]32)[C@@H](C)[C@@H]1O [TIAMULIN]
## Output 16

---

Listed here: items and their measured zone of inhibition at 320 µg/mL.
# Tested on: Streptococcus agalactiae
# Assay text: Antibacterial activity against Streptococcus agalactiae at 320 ug/ml after 24 hrs by Oxford cup assay
# Assay type: functional
# Test parameters: read-out: IZ
Entry rule: numbers only, all in mm.

# Compound, Endpoint unit, zone of inhibition at 320 µg/mL
data = [
    ("C=C[C@]1(C)C[C@@H](OC(=O)CSc2nnc(NC(=O)CN(C)C)s2)[C@]2(C)[C@H](C)CC[C@]3(CCC(=O)[C@H]32)[C@@H](C)[C@@H]1O", "mm", 14.5),
    ("C=C[C@]1(C)C[C@@H](OC(=O)CSc2nnc(NC(=O)c3ccc(Cl)cc3)s2)[C@]2(C)[C@H](C)CC[C@]3(CCC(=O)[C@H]32)[C@@H](C)[C@@H]1O", "mm", 13.4),
    ("C=C[C@]1(C)C[C@@H](OC(=O)CSc2nnc(NC(=O)CN3CCCCC3)s2)[C@]2(C)[C@H](C)CC[C@]3(CCC(=O)[C@H]32)[C@@H](C)[C@@H]1O", "mm", 17.7),
    ("C=C[C@]1(C)C[C@@H](OC(=O)CSc2nnc(NC(=O)c3ccccc3N)s2)[C@]2(C)[C@H](C)CC[C@]3(CCC(=O)[C@H]32)[C@@H](C)[C@@H]1O", "mm", 13.8),
    ("C=C[C@]1(C)C[C@@H](OC(=O)CSc2nnc(NC(=O)CN(CC)CC)s2)[C@]2(C)[C@H](C)CC[C@]3(CCC(=O)[C@H]32)[C@@H](C)[C@@H]1O", "mm", 12.7),
]

## Input # lookup: zone of inhibition at 320 µg/mL of `C=C[C@]1(C)C[C@@H](OC(=O)CSc2nnc(NC(=O)c3ccc(OC)cc3)s2)[C@]2(C)[C@H](C)CC[C@]3(CCC(=O)[C@H]32)[C@@H](C)[C@@H]1O`
## Output 14.3

## Input # lookup: zone of inhibition at 320 µg/mL of `C=C[C@]1(C)C[C@@H](OC(=O)CSc2nnc(NC(=O)CN3CCOCC3)s2)[C@]2(C)[C@H](C)CC[C@]3(CCC(=O)[C@H]32)[C@@H](C)[C@@H]1O`
## Output 13.2

---

# Test system: Staphylococcus aureus
# Assay text: Antibacterial activity against methicillin-resistant Staphylococcus aureus after 48 hrs by agar dilution method
# Assay type: functional
Listed here: items and their measured MIC.
Quick note: unit goes after the number.

# Smiles, Test system, MIC
rows = [
    ("C=C[C@]1(C)C[C@@H](OC(=O)CSc2nnc(NC(=O)CN(CC)CC)s2)[C@]2(C)[C@H](C)CC[C@]3(CCC(=O)[C@H]32)[C@@H](C)[C@@H]1O", "Staphylococcus aureus", "8 mg/L"),
    ("C=C[C@]1(C)C[C@@H](OC(=O)CSc2nnc(NC(=O)c3ccccc3OC)s2)[C@]2(C)[C@H](C)CC[C@]3(CCC(=O)[C@H]32)[C@@H](C)[C@@H]1O", "Staphylococcus aureus", "1 mg/L"),
    ("C=C[C@]1(C)C[C@@H](OC(=O)CSc2nnc(NC(=O)c3ccc(OC)cc3)s2)[C@]2(C)[C@H](C)CC[C@]3(CCC(=O)[C@H]32)[C@@H](C)[C@@H]1O", "Staphylococcus aureus", "2 mg/L"),
    ("C=C[C@]1(C)C[C@@H](OC(=O)CSc2nnc(NC(=O)c3cccc(OC)c3)s2)[C@]2(C)[C@H](C)CC[C@]3(CCC(=O)[C@H]32)[C@@H](C)[C@@H]1O", "Staphylococcus aureus", "8 mg/L"),
    ("C=C[C@]1(C)C[C@@H](OC(=O)CSc2nnc(NC(=O)CN(C)C)s2)[C@]2(C)[C@H](C)CC[C@]3(CCC(=O)[C@H]32)[C@@H](C)[C@@H]1O", "Staphylococcus aureus", "1 mg/L"),
    ("C=C[C@]1(C)C[C@@H](OC(=O)CSc2nnc(N)s2)[C@]2(C)[C@H](C)CC[C@]3(CCC(=O)[C@H]32)[C@@H](C)[C@@H]1O", "Staphylococcus aureus", "0.5 mg/L"),
    ("C=C[C@]1(C)C[C@@H](OC(=O)CSc2nnc(NC(=O)c3cccc(N)c3)s2)[C@]2(C)[C@H](C)CC[C@]3(CCC(=O)[C@H]32)[C@@H](C)[C@@H]1O", "Staphylococcus aureus", "0.25 mg/L"),
    ("C=C[C@]1(C)C[C@@H](OC(=O)CSc2nnc(NC(=O)c3ccc(Cl)cc3)s2)[C@]2(C)[C@H](C)CC[C@]3(CCC(=O)[C@H]32)[C@@H](C)[C@@H]1O", "Staphylococcus aureus", "4 mg/L"),
]

## Input # lookup: MIC of `C=C[C@]1(C)C[C@@H](OC(=O)CSc2nnc(NC(=O)c3ccccc3Cl)s2)[C@]2(C)[C@H](C)CC[C@]3(CCC(=O)[C@H]32)[C@@H](C)[C@@H]1O`
## Output 2 mg/L

## Input # lookup: MIC of `C=C[C@]1(C)C[C@@H](OC(=O)CSc2nnc(NC(=O)c3cccc(Cl)c3)s2)[C@]2(C)[C@H](C)CC[C@]3(CCC(=O)[C@H]32)[C@@H](C)[C@@H]1O`
## Output 2 mg/L

## Input # lookup: MIC of `C=C[C@]1(C)C[C@@H](OC(=O)CSc2nnc(NC(=O)CN3CCN(C)CC3)s2)[C@]2(C)[C@H](C)CC[C@]3(CCC(=O)[C@H]32)[C@@H](C)[C@@H]1O`
## Output 8 mg/L

---

# Assay text: Oral bioavailability in chicken
# Type: ADME, organism-based, Gallus gallus
# Test parameters: in vivo
Recorded metric: bioavailability

## Input # lookup: bioavailability of C=C[C@]1(C)C[C@@H](OC(=O)CSC(C)(C)CNC(=O)[C@H](N)C(C)C)[C@]2(C)[C@H](C)CC[C@]3(CCC(=O)[C@H]32)[C@@H](C)[C@@H]1O [VALNEMULIN]
## Output 74%

---

# System: Escherichia coli
# Assay text: Antibacterial activity against Escherichia coli after 48 hrs by agar dilution method
# Format: functional
Recorded metric: MIC (µg/mL)
Entry rule: numbers only, all in µg/mL.

# Compound, MIC / µg/mL
data = [
    ("C=C[C@]1(C)C[C@@H](OC(=O)CSc2nnc(NC(=O)c3cccc(Cl)c3)s2)[C@]2(C)[C@H](C)CC[C@]3(CCC(=O)[C@H]32)[C@@H](C)[C@@H]1O", 32),
    ("C=C[C@]1(C)C[C@@H](OC(=O)CSc2nnc(NC(=O)c3ccccc3N)s2)[C@]2(C)[C@H](C)CC[C@]3(CCC(=O)[C@H]32)[C@@H](C)[C@@H]1O", 16),
    ("C=C[C@]1(C)C[C@@H](OC(=O)CSc2nnc(NC(=O)CN(CC)CC)s2)[C@]2(C)[C@H](C)CC[C@]3(CCC(=O)[C@H]32)[C@@H](C)[C@@H]1O", 64),
    ("C=C[C@]1(C)C[C@@H](OC(=O)CSc2nnc(NC(=O)CN3CCCCC3)s2)[C@]2(C)[C@H](C)CC[C@]3(CCC(=O)[C@H]32)[C@@H](C)[C@@H]1O", 16),
]

## Input # lookup: MIC of CC[C@]1(C)C[C@@H](OC(=O)CSc2nnc(N)[nH]2)[C@]2(C)[C@H](C)CC[C@]3(CCC(=O)[C@H]32)[C@@H](C)[C@@H]1O [AZAMULIN]
## Output 4

## Input # lookup: MIC of `C=C[C@]1(C)C[C@@H](OC(=O)CSc2nnc(NC(=O)CN3CCCC3)s2)[C@]2(C)[C@H](C)CC[C@]3(CCC(=O)[C@H]32)[C@@H](C)[C@@H]1O`
## Output 32

## Input # lookup: MIC of `C=C[C@]1(C)C[C@@H](OC(=O)CSc2nnc(NC(=O)c3cccc(N)c3)s2)[C@]2(C)[C@H](C)CC[C@]3(CCC(=O)[C@H]32)[C@@H](C)[C@@H]1O`
## Output 16

## Input # lookup: MIC of `C=C[C@]1(C)C[C@@H](OC(=O)CSc2nnc(NC(=O)c3ccccc3OC)s2)[C@]2(C)[C@H](C)CC[C@]3(CCC(=O)[C@H]32)[C@@H](C)[C@@H]1O`
## Output 16

## Input # lookup: MIC of `C=C[C@]1(C)C[C@@H](OC(=O)CSc2nnc(N)s2)[C@]2(C)[C@H](C)CC[C@]3(CCC(=O)[C@H]32)[C@@H](C)[C@@H]1O`
## Output 8

## Input # lookup: MIC of `C=C[C@]1(C)C[C@@H](OC(=O)CSc2nnc(NC(=O)CN(C)C)s2)[C@]2(C)[C@H](C)CC[C@]3(CCC(=O)[C@H]32)[C@@H](C)[C@@H]1O`
## Output 32
